- testedOn: T1, human CD79B on the surface of cells (DoHH2 / DOHH-2, WSU-DLCL2) (human, UniProt P40259 29-229)
- T1 sequence (looked up): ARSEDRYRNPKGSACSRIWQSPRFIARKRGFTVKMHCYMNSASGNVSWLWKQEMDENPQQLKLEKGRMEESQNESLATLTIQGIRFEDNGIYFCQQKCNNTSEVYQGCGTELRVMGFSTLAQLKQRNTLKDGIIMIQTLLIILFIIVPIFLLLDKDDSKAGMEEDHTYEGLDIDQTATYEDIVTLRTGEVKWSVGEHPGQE
- methodNotes: cell-based or functional assay
property: Endocytosis rate (4 h), DoHH2 cells

* ADC-1 (antibody, human IgG1, kappa, V domains shown, compound B coupled to cysteines after TCEP reduction; positions not given; compound B (eribulin-derivative linker-drug) coupled to cysteines after TCEP reduction; positions not given; mean n=3.06 per antibody, Antibody-drug conjugate of hAb015-10; DAR 3.06; also called hAb015-10-cys-B) VH: EVQLVQSGAEVKKPGSSVKVSCKASGSSFSSYGINWVKQAPGQGLEWIGEIFPRSGNTYYNEKFEGRATLTADKSTSTAYMELRSLRSEDTAVYYCAKGDLGDFDYWGQGTTVTVSS VL: DFVMTQTPLSLPVTPGEPASISCRSSQSIVHSDGNTYFEWYLQKPGQSPKLLIYKVSNRFSGVPDRFSGSGSGTDFTLKISRVEAEDVGVYYCFQGSHVPWTFGGGTKVEIKR | 73%
* ADC-7 (antibody, human IgG1, kappa, V domains shown, compound D coupled to cysteines after TCEP reduction; positions not given; compound D (exatecan-type linker-drug, Topo I inhibitor) coupled to cysteines after TCEP reduction; positions not given; mean n=5.84 per antibody) VH: EVQLVQSGAEVKKPGSSVKVSCKASGSSFSSYGINWVKQAPGQGLEWIGEIFPRSGNTYYNEKFEGRATLTADKSTSTAYMELRSLRSEDTAVYYCAKGDLGDFDYWGQGTTVTVSS VL: DFVMTQTPLSLPVTPGEPASISCRSSQSIVHSDGNTYFEWYLQKPGQSPKLLIYKVSNRFSGVPDRFSGSGSGTDFTLKISRVEAEDVGVYYCFQGSHVPWTFGGGTKVEIKR | 68%
* ADC-3 (antibody, human IgG1, kappa, V domains shown, MC-vc-PAB-MMAE coupled to cysteines after TCEP reduction; positions not given; MC-vc-PAB-MMAE coupled to cysteines after TCEP reduction; positions not given; mean n=3.09 per antibody, Antibody-drug conjugate of hAb015-10; DAR 3.09; also called hAb015-10-cys-MC-vc-PAB-MMAE) VH: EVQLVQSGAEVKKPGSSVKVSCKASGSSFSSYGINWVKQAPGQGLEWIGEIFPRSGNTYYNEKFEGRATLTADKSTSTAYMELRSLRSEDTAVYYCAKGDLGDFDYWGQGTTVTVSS VL: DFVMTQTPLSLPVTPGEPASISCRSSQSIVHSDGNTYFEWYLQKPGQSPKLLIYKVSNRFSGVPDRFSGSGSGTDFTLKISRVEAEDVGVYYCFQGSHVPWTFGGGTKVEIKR | 70%
